System: MES-SA
Experiment: relative viability vs DMSO control (72 h) (fraction); higher = more viable cells
Settings: 10 µM
Output Fulfilled for records whose relative viability is lower than 0.5, Not fulfilled for records at or above 0.5.

{"columns": ["Compound String", "Group"],
 "data": [
  ["Cc1cc2c(F)c(Oc3ncnn4cc(OC[C@@H](C)O)c(C)c34)ccc2[nH]1", "Not fulfilled"],
  ["CC#CC(=O)N1CCC[C@H]1c1nc(-c2ccc(C(=O)Nc3ccccn3)cc2)c2c(N)nccn12", "Not fulfilled"],
  ["Cn1ncnc1[C@H]1c2n[nH]c(=O)c3cc(F)cc(c23)N[C@@H]1c1ccc(F)cc1", "Fulfilled"],
  ["O=C(Nc1nc2cccc(-c3ccc(CN4CCS(=O)(=O)CC4)cc3)n2n1)C1CC1", "Not fulfilled"],
  ["Cc1ccc(Nc2nccc(N(C)c3ccc4c(C)n(C)nc4c3)n2)cc1S(N)(=O)=O", "Not fulfilled"],
  ["C[C@H](Nc1ncnc2nc[nH]c12)c1cc2cccc(Cl)c2c(=O)n1-c1ccccc1", "Fulfilled"]
]}

---

compounds and their reported relative viability
System: VA-ES-BJ
Experiment: relative viability vs DMSO control (72 h) (fraction); higher = more viable cells
Conditions: 1.111 µM
Parameter Measured: relative viability

{"columns": ["Compound", "Endpoint Result"],
 "data": [
  ["CC#CC(=O)N1CCC[C@H]1c1nc(-c2ccc(C(=O)Nc3ccccn3)cc2)c2c(N)nccn12", 1.08],
  ["COc1cc(CCc2cc(NC(=O)c3ccc(N4CC(C)NC(C)C4)cc3)n[nH]2)cc(OC)c1 (configuration not stated)", 1.07],
  ["O=C(Nc1nc2cccc(-c3ccc(CN4CCS(=O)(=O)CC4)cc3)n2n1)C1CC1", 0.976],
  ["CCN(CC)CCNC(=O)c1c(C)[nH]c(/C=C2\\C(=O)Nc3ccc(F)cc32)c1C", 0.745],
  ["CC(C)Oc1ccc(-c2nn([C@@H](C)c3oc4ccc(F)cc4c(=O)c3-c3cccc(F)c3)c3ncnc(N)c23)cc1F", 1.05],
  ["Cn1ncnc1[C@H]1c2n[nH]c(=O)c3cc(F)cc(c23)N[C@@H]1c1ccc(F)cc1", 0.406],
  ["Cn1cc(C2=C(c3cn(C4CCN(Cc5ccccn5)CC4)c4ccccc34)C(=O)NC2=O)c2ccccc21", 1.11]
]}

---

Tested on: SW1353
Assay: relative viability vs DMSO control (72 h) (fraction); higher = more viable cells
Settings: 0.00152 µM

{"columns": ["Compound String", "relative viability"],
 "data": [
  ["Cc1cc2c(F)c(Oc3ncnn4cc(OC[C@@H](C)O)c(C)c34)ccc2[nH]1", 0.952],
  ["COC(=O)N[C@@H](C)CNc1nccc(-c2cn(C(C)C)nc2-c2cc(Cl)cc(NS(C)(=O)=O)c2F)n1", 1.1],
  ["CN1CCN(c2ccc(C(=O)Nc3n[nH]c4ccc(Cc5cc(F)cc(F)c5)cc34)c(NC3CCOCC3)c2)CC1", 1.01],
  ["CC(C)(O)CNc1nc(Nc2ccnc(C(F)(F)F)c2)nc(-c2cccc(C(F)(F)F)n2)n1", 0.99],
  ["CC#CC(=O)N1CCC[C@H]1c1nc(-c2ccc(C(=O)Nc3ccccn3)cc2)c2c(N)nccn12", 0.942],
  ["C[C@H](Nc1ncnc2nc[nH]c12)c1cc2cccc(Cl)c2c(=O)n1-c1ccccc1", 1.03],
  ["Cc1ccc(Nc2nccc(N(C)c3ccc4c(C)n(C)nc4c3)n2)cc1S(N)(=O)=O", 0.94],
  ["COc1cc(OC)c(/C=C/S(=O)(=O)Cc2ccc(OC)c(NCC(=O)O)c2)c(OC)c1", 0.994],
  ["O=C(Nc1ccc(OC(F)(F)Cl)cc1)c1cnc(N2CC[C@@H](O)C2)c(-c2cc[nH]n2)c1", 0.936]
]}

---

System: SK-LMS-1
Assay: relative viability vs DMSO control (72 h) (fraction); higher = more viable cells
Conditions: 0.01372 µM
Output true for records whose relative viability is lower than 1, false for records at or above 1.

{"columns": ["Compound", "Experimental Target", "Group"],
 "data": [
  ["COC(=O)[C@@]1(O)C[C@H]2O[C@]1(C)n1c3ccccc3c3c4c(c5c6ccccc6n2c5c31)C(=O)NC4 [K-252a]", "SK-LMS-1", "true"],
  ["COc1cc(OC)c(/C=C/S(=O)(=O)Cc2ccc(OC)c(NCC(=O)O)c2)c(OC)c1 [Rigosertib]", "SK-LMS-1", "false"],
  ["N#CCNC(=O)c1ccc(-c2ccnc(Nc3ccc(N4CCOCC4)cc3)n2)cc1 [Momelotinib]", "SK-LMS-1", "false"],
  ["CN1CCN(c2ccc(C(=O)Nc3n[nH]c4ccc(Cc5cc(F)cc(F)c5)cc34)c(NC3CCOCC3)c2)CC1 [Entrectinib]", "SK-LMS-1", "false"],
  ["N#CC1(c2ccc(NC(=O)c3cccnc3NCc3ccncc3)cc2)CCCC1 [Apatinib]", "SK-LMS-1", "false"],
  ["CNC(=O)c1nnc(NC(=O)C2CC2)cc1Nc1cccc(-c2ncn(C)n2)c1OC", "SK-LMS-1", "false"]
]}

---

Test system: RD-ES
Assay: relative viability vs DMSO control (72 h) (fraction); higher = more viable cells
Conditions: 0.00051 µM
compounds and their reported relative viability

{"columns": ["Compound String", "relative viability"],
 "data": [
  ["Cc1ccc(Nc2nccc(N(C)c3ccc4c(C)n(C)nc4c3)n2)cc1S(N)(=O)=O", 0.95],
  ["CC(C)(C)c1nc(-c2cccc(NS(=O)(=O)c3c(F)cccc3F)c2F)c(-c2ccnc(N)n2)s1", 0.924],
  ["Clc1ccc(Nc2nnc(Cc3ccncc3)c3ccccc23)cc1", 0.954],
  ["Cc1cccc(-c2nn3c(c2-c2ccnc4ccc(C(N)=O)cc24)CCC3)n1", 0.975]
]}

---

compounds and their reported relative viability
System: SYO-1
Test: relative viability vs DMSO control (72 h) (fraction); higher = more viable cells
Conditions: 0.01372 µM

{"columns": ["Compound String", "Experimental Target", "relative viability"],
 "data": [
  ["CC[C@@H]1CN(C(=O)NCC(F)(F)F)C[C@@H]1c1cnc2cnc3[nH]ccc3n12", "SYO-1", 0.958],
  ["Cc1cc2cc(Oc3ccnc(Nc4cccc(CS(=O)(=O)NCCN(C)C)c4)n3)ccc2[nH]1", "SYO-1", 0.9],
  ["CCc1cnn2c(NCc3ccc[n+]([O-])c3)cc(N3CCCC[C@H]3CCO)nc12", "SYO-1", 0.28]
]}

---

Test system: SK-ES-1
Test: relative viability vs DMSO control (72 h) (fraction); higher = more viable cells
Details: 0.00457 µM

{"columns": ["Compound", "relative viability"],
 "data": [
  ["CC1(COc2ccc3c(c2)ncn3-c2ccc3cccc(N4CCC(N)CC4)c3n2)COC1 [Crenolanib]", 1.05],
  ["CN1CCN(c2ccc(C(=O)Nc3n[nH]c4ccc(Cc5cc(F)cc(F)c5)cc34)c(NC3CCOCC3)c2)CC1 [Entrectinib]", 1.06],
  ["Cn1ncnc1[C@H]1c2n[nH]c(=O)c3cc(F)cc(c23)N[C@@H]1c1ccc(F)cc1 [Talazoparib]", 0.614],
  ["CNC(=O)c1ccccc1Sc1ccc2c(/C=C/c3ccccn3)n[nH]c2c1 [Axitinib]", 1.02],
  ["CCC(=O)N1CC[C@H](Nc2ncnc3c2CN(c2cnc(OC)c(C(F)(F)F)c2)CC3)C1 [Leniolisib]", 1.02],
  ["COC(=O)N[C@@H](C)CNc1nccc(-c2cn(C(C)C)nc2-c2cc(Cl)cc(NS(C)(=O)=O)c2F)n1 [Encorafenib]", 0.979],
  ["CC(C)(O)CNc1nc(Nc2ccnc(C(F)(F)F)c2)nc(-c2cccc(C(F)(F)F)n2)n1 [Enasidenib]", 1.04],
  ["CC1(C)CC=C(c2nc(C3CC(C)(C)OC(C)(C)C3)ccc2NC(=O)c2nc(C#N)c[nH]2)CC1 [Edicotinib]", 1.01]
]}

---

Test system: G401
Test: relative viability vs DMSO control (72 h) (fraction); higher = more viable cells
Details: 0.01372 µM

{"columns": ["Compound", "relative viability"],
 "data": [
  ["COc1cc(OC)c(/C=C/S(=O)(=O)Cc2ccc(OC)c(NCC(=O)O)c2)c(OC)c1 [Rigosertib]", 1.04],
  ["CCN(CC)CCNC(=O)c1c(C)[nH]c(/C=C2\\C(=O)Nc3ccc(F)cc32)c1C [Sunitinib]", 0.999],
  ["CN1CC[C@@H](NC(=O)Nc2ccc(C#N)cc2)C[C@@H]1c1nc2ccccc2[nH]1 [Glasdegib]", 1.03],
  ["O=S(=O)(c1cccc2cnccc12)N1CCCNCC1 [Fasudil]", 0.948],
  ["Clc1ccc(Nc2nnc(Cc3ccncc3)c3ccccc23)cc1 [Vatalanib]", 0.979],
  ["CO[C@H]1C[C@@H]2CC[C@@H](C)[C@@](O)(O2)C(=O)C(=O)N2CCCC[C@H]2C(=O)O[C@H]([C@H](C)C[C@@H]2CC[C@@H](OCCO)[C@H](OC)C2)CC(=O)[C@H](C)/C=C(\\C)[C@@H](O)[C@@H](OC)C(=O)[C@H](C)C[C@H](C)/C=C/C=C/C=C/1C [Certican]", 0.784],
  ["CCc1cnn2c(NCc3ccc[n+]([O-])c3)cc(N3CCCC[C@H]3CCO)nc12 [Dinaciclib]", 0.46],
  ["COCCNc1cc(NC(=O)N2CCCc3cc(CN4CCN(C)CC4=O)c(C=O)nc32)ncc1C#N [Roblitinib]", 0.943],
  ["CC(C)(O)CNc1nc(Nc2ccnc(C(F)(F)F)c2)nc(-c2cccc(C(F)(F)F)n2)n1 [Enasidenib]", 1.03]
]}
